Quick reference: TGI of the listed items.
System: NCI/ADR-RES ovarian
experiment-description: NCI tumour cell line growth inhibition, 48 h

Look over these answered cases.
compound	TGI
CCOC(=O)C1=C(C)N(c2ccc(OC)cc2)C2(O)C=CC(=O)C3C(=O)N(c4ccccc4)C(=O)C132 (centres undefined)	22.3 µM
COc1ccc(C=Nc2c(O)ccc3ccccc23)cc1OC	> 100 µM
CCCCCCCCCCCC[n+]1c(C)cc(N)c2ccccc21	> 100 µM

Note: attention shifts to another entry.
## Input What TGI value was documented for this compound, CCCCCCc1nn2c(-c3ccncc3)nnc2s1 ?
## Output > 10 µM

---

Test system: SK-OV-3 ovarian
experiment-description: NCI tumour cell line growth inhibition, 48 h
Quick reference: GI50 of the listed items.

Look over these answered cases.
compound	quantity-kind	result
COc1ccc(/C=N/C2=C(C#N)C(c3ccccc3)c3c(ccc4ccccc34)O2)cc1 (centres undefined)	GI50	4.95 µM
CC1CN1C1=CC(=O)c2c(c(CO)cn2C)C1=O (centres undefined)	GI50	0.509 µM
Clc1ccc(C2c3ccccc3-c3nccn32)c(Cl)c1 (centres undefined)	GI50	14.7 µM

## Input What GI50 value was documented for this compound, CO[C@H](C(=O)[C@@H](O)[C@@H](C)O)[C@@H]1Cc2cc3cc(O[C@H]4C[C@@H](O[C@H]5C[C@@H](O)[C@H](O)C(C)O5)[C@H](O)C(C)(O)O4)cc(O)c3c(O)c2C(=O)[C@H]1O[C@H]1C[C@@H](O[C@H]2C[C@@H](O[C@H]3C[C@@H](OC)[C@H](O)C(C)O3)[C@@H](O)C(C)O2)[C@H](O)C(C)O1 (some centres undefined) ?
## Output 0.671 µM

---

Tested on: MDA-MB-231 breast
experiment-description: NCI tumour cell line growth inhibition, 48 h
Quick reference: TGI of the listed items.

Look over these answered cases.
compound	result
NNC1=N/C(=C\c2ccccc2O)C(=O)N1	> 100 µM
Cc1ccc(/C=C2\N=C(N3CCOCC3)NC2=O)cc1	> 100 µM
CO[C@H](C(=O)[C@@H](O)[C@@H](C)O)[C@@H]1Cc2cc3cc(O[C@H]4C[C@@H](O[C@H]5C[C@@H](O)[C@H](O)C(C)O5)[C@H](O)C(C)(O)O4)cc(O)c3c(O)c2C(=O)[C@H]1O[C@H]1C[C@@H](O[C@H]2C[C@@H](O[C@H]3C[C@@H](OC)[C@H](O)C(C)O3)[C@@H](O)C(C)O2)[C@H](O)C(C)O1 (some centres undefined)	> 16.8 µM

## Input What TGI value was documented for this compound, N=C(N)SCCc1ccncc1 ?
## Output > 100 µM

---

Quick reference: TGI of the listed items.
Tested on: EKVX NSCLC
experiment-description: NCI tumour cell line growth inhibition, 48 h

## Input What TGI value was documented for this molecule, COc1ccc2c(c1)C(=O)c1c-2n(CCCNCCO)c(=O)c2ccccc12 ?
## Output 1.5 µM

## Input What TGI value was documented for this molecule, CC(C)[C@]12O[C@H]1[C@@H]1O[C@]13[C@]1(O[C@H]1C[C@H]1C4=C(CC[C@@]13C)C(=O)OC4)[C@@H]2OC(=O)CN(C)C ?
## Output > 100 µM

## Input What TGI value was documented for this molecule, CCOC(=O)C(NC(=O)CC(C)C)(NC(C)C)C(F)(F)F (configuration not stated) ?
## Output > 100 µM

## Input What TGI value was documented for this molecule, COC(=O)C1=C(O)[C@H](C(=O)OC)C2(O)[C@@H](C(=O)OC)[C@H]1C[C@@H](c1ccc(OC(=O)n3ccnc3)cc1)[C@@H]2C(=O)OC ?
## Output 45.4 µM

## Input What TGI value was documented for this molecule, O=C(N=C1N(c2ccccc2)C(=O)C(=O)N1c1ccccc1)c1ccccc1 ?
## Output 32.1 µM

## Input What TGI value was documented for this molecule, O=C(O)CCCn1c(SCc2c(Cl)cccc2Cl)nc2ccsc2c1=O ?
## Output > 100 µM

## Input What TGI value was documented for this molecule, CC(=O)N=C1C=C(NC(C)=O)C(=O)c2ccccc21 ?
## Output 12.5 µM

## Input What TGI value was documented for this molecule, O=C1c2ccccc2CCC1C(O)(C(F)(F)F)C(F)(F)F (configuration not stated) ?
## Output > 100 µM

## Input What TGI value was documented for this molecule, O=c1c2cccnc2[nH]c2ccc3[nH]ncc3c12 ?
## Output > 10 µM

## Input What TGI value was documented for this molecule, CN1CCN(CC(=O)Nc2cccc3ccccc23)CC1 ?
## Output > 100 µM

## Input What TGI value was documented for this molecule, O=C1CCC(O)=C1N=Nc1cc(Cl)cc(Cl)c1 ?
## Output > 100 µM

## Input What TGI value was documented for this molecule, c1ccc2cc(CN3CCC(C4CCN(Cc5ccc6ccccc6c5)CC4)CC3)ccc2c1 ?
## Output 29.6 µM

## Input What TGI value was documented for this molecule, Nc1nc(N)c2cc(CNc3ccc(C(=O)NC(CC(=O)O)C(=O)O)cc3)ccc2n1 (configuration not stated) ?
## Output > 100 µM

## Input What TGI value was documented for this molecule, NNC1=N/C(=C\c2ccccc2O)C(=O)N1 ?
## Output > 100 µM
